molecular target: T1, human apical domain of CD71 (human, UniProt P02786 189-383, limits assumed); experiment: primary ELISA; signal over HSA control
T1 construct: domain: apical domain
T1 sequence (P02786 189-383 limits assumed): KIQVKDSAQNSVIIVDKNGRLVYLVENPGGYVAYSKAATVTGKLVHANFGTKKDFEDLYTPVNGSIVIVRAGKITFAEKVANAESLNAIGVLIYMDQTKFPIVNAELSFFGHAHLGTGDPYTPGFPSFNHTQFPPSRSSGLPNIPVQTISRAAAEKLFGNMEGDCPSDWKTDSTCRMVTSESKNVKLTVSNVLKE
measure_name: Apical domain:HSA (ratio)
Give bare numbers, in ratio.

Some binders with known Apical domain:HSA results, for comparison:
Q) Data request, read-out Apical domain:HSA, for CD71-binding FN3 domain SEQ ID NO 420 (designed binder) MLPAPKNLVVSRVTEDSARLSWTAPDAAFDSFFIGYLEPQPPGEAIHLQVPGSERSYDLTGLKPGTEYNVTIHGVKGGIPSMPLSAKFTT
A) 495

Q) Data request, read-out Apical domain:HSA, for CD71-binding FN3 domain SEQ ID NO 408 (designed binder) MLPAPKNLVVSRVTEDSARLSWTAPDAAFDSFFIGYLEPQPPGEAIGLWVPGSERSYDLTGLKPGTEYNVTIQGVKGGFPSMPLSAIFTT
A) 165

Q) Data request, read-out Apical domain:HSA, for CD71-binding FN3 domain SEQ ID NO 433 (designed binder) MLPAPKNLVVSRVTEDSARLSWTAPDAAFDSFFIGYLEPQPPGEAIALYVPGSERSYDLTGLKPGTEYNVTIQGVKGGFPSLPLEANFTT
A) 184

Q) Data request, read-out Apical domain:HSA, for CD71-binding FN3 domain SEQ ID NO 390 (designed binder) MLPAPKNLVVSRVTEDSARLSWTAPDAAFDSFEIGYFERAWFGEAIVLTVPGSERSYDLTGLKPGTEYAVFIGGVKGGSYSYPLSAIFTT
A) 131

Q) Data request, read-out Apical domain:HSA, for CD71-binding FN3 domain SEQ ID NO 405 (designed binder) MLPAPKNLVVSRVTEDSARLSWTAPDAAFDSFFIGYLEPQPPGEAIHLWVPGSERSYDLTGLKPGTEYNVTIQGVKGGFPSLPLSAFFTT
A) 193

Each binder below has a reported value. Please supply its Apical domain:HSA.
1. CD71-binding FN3 domain SEQ ID NO 377 (designed binder) MLPAPKNLVVSRVTEDSARLSWTAPDAAFDSFFIGYLEPQPPGEAIQLWVPGSERSYDLTGLKPGTEYNVTIQGVKGGFPSTPLQALFTT
2. CD71-binding FN3 domain SEQ ID NO 432 (designed binder) MLPAPKNLVVSRVTEDSARLSWTAPDAAFDSFFIGYLEPQPPGEAIALYVPGSERSYDLTGLKPGTEYNVTIQGVKGGFPSGPLEAYFTT
3. CD71-binding FN3 domain SEQ ID NO 435 (designed binder) MLPAPKNLVVSRVTEDSARLSWTAPDAAFDSFFIGYLEPQPPGEAIALWVPGSERSYDLTGLKPGTEYNVTIQGVKGGFPSHPLAAVFTT
4. CD71-binding FN3 domain SEQ ID NO 444 (designed binder) MLPAPKNLVVSRVTEDSARLSWTAPDAAFDSFEIDYVEFIFTGEAIGLIVPGSERSYDLTGLKPGTKYWVTIAGVKGGEWSTPLQAFFTT

A)
[274, 79, 319, 89]
